# study.target: HLA-DRB1*0701 (DR7) (Homo sapiens, UniProt P01903+P01911, A100R/A102G/A103Q/D57E/D86V/E43K/F76Y/K127E/L162R/M171V/P40G/Q125H/Q99D/R33Q/R42Y/R54Q/S133A/S66F/T210M/V115G/Y107V/Y59L/Y89S)
# Construct: endogenous in cells; host or cells: Pitout
# test.details: biochemical
# Assay type: binding

biopolymer.sequence: IVTDSQYAL
DR7 binding information: −0.0014
--
biopolymer.sequence: IDPENPYNT
DR7 binding information: −0.0005
--
biopolymer.sequence: VIQGNSDIK
DR7 binding information: −0.0014
--
biopolymer.sequence: VLAEAMSQV
DR7 binding information: 0.0025
--
biopolymer.sequence: FYVDGAANR
DR7 binding information: −0.0014
--
biopolymer.sequence: VAKEIVASC
DR7 binding information: 0.0015
--
biopolymer.sequence: FIHNFKRKG
DR7 binding information: 0.0048

----------
# study.target: HLA-B*0702 (Homo sapiens, UniProt P01889)
# Construct: endogenous in cells; host or cells: GM3107
# test.details: purified HLA class I binding assay, B*0702
# assay.conditions: HIV B07 supermotif peptides; binding value for purified HLA-B*0702, unit not given

biopolymer.sequence: LPGRWKPKM
B*0702 (binding information): 0.0038
--
biopolymer.sequence: IIPGSQPKTA
B*0702 (binding information): 0.0007
--
biopolymer.sequence: LPQGWKGSPA
B*0702 (binding information): 0.0120
--
biopolymer.sequence: VPLDKDFRKY
B*0702 (binding information): 0.0002
--
biopolymer.sequence: VPRRKAKII
B*0702 (binding information): 0.4800
--
biopolymer.sequence: HPAGLKKKKS
B*0702 (binding information): 0.0001
--
biopolymer.sequence: QPDKSESEIV
B*0702 (binding information): 0.0002

meta.source: patent US20050271676A1
